# Tested on: NCI-H23 lung
# Method Notes: NCI tumour cell line growth inhibition, 48 h
Measured Property: TGI

Prompt: Given the entry CCCN(CCC)C1CC(n2cc(C)c(=O)[nH]c2=O)OC1CO (stereo not given) , report its measured TGI.
Completion: > 100 µM

Others:
Prompt: Query (compound): `Oc1ccc(CCNc2nc3ccccc3c3[nH]c4ccccc4c23)cc1O` ; field requested: TGI
Completion: 22.7 µM

Prompt: Same read-out for `CN1CCN(c2cc(F)c(NC3=C(Cl)C(=O)c4ncccc4C3=O)c(F)c2)CC1` ?
Completion: 3.01 µM

Prompt: # repeat for `O=c1c2ccccc2c(=O)n2n1-c1cccc(c1)CSSCc1cccc-2c1`
Completion: > 100 µM

Prompt: Please do the same for `O=C(Nc1ccc(Cl)cc1)c1cc(S(=O)(=O)Nc2nc3ncccc3[nH]2)c(SSc2cc(Cl)c(C(=O)Nc3ccc(Cl)cc3)cc2S(=O)(=O)Nc2nc3ncccc3[nH]2)cc1Cl` as well.
Completion: > 100 µM

====

Recorded TGI for the following compounds
# System: HCT-116 colon
# Method Notes: NCI tumour cell line growth inhibition, 48 h
The figure you give is taken to be in µM; do not add the unit.

Prompt: Request: TGI, test system HCT-116 colon, entry Fc1ccc(/C=C2\COCC3=C2NC(=S)NC3c2ccc(F)cc2)cc1 (stereo not given)
Completion: 32.1

Let's switch to this compound now.
Prompt: Kindly state the measured TGI obtained for `C=CCn1c(SCC(=O)Nc2ccc(C(=O)/C=C/c3cc(OC)c(OC)c(OC)c3)cc2)nnc1-c1cc(OC)c(OC)c(OC)c1` with HCT-116 colon.
Completion: 5.12

====

GI50 by entry:
# System: OVCAR-8 ovarian
# Method Notes: NCI tumour cell line growth inhibition, 48 h

Take a look at these entries with their results.
Prompt: Could you tell me which GI50 is on file for `Cc1cc2c(cc1Cl)SC(=Nc1ccc(Cl)cc1)N(S(=O)(=O)c1ccc(Br)s1)S2(=O)=O` ?
Completion: 18.8 µM

Prompt: Try this compound next: `COc1cc(-c2csc(NC(=O)Nc3ccc(Cl)cc3)n2)cc(OC)c1OC`
Completion: 2.46 µM

Prompt: // same read-out, input: `CCN(Cc1ccccc1)c1ccc(/C=C2\COc3ccccc3C2=O)cc1`
Completion: > 1000 µM

Prompt: What about `CN1CCN(c2cc(F)c(NC3=C(Cl)C(=O)c4ncccc4C3=O)c(F)c2)CC1` ?
Completion: 1.86 µM

---
Prompt: Using the record for `N#CSc1c[nH]c2ccc(/C=C/C(=O)/C=C(O)/C=C/c3ccc4[nH]cc(SC#N)c4c3)cc12` , report its GI50.
Completion: 2.46 µM

====

# Tested on: SK-OV-3 ovarian
# Method Notes: NCI tumour cell line growth inhibition, 48 h
// reported TGI per item
Give just the number in µM; leave the unit off.

Prompt: Find the recorded TGI belonging to `CN(C)CCNc1c(O)c2c(c(O)c1Cl)C(=O)C=CC2=O` and report it.
Completion: 32.1

Prompt: Follow-up item: `O=c1c(-c2cccc3ccccc23)c(-c2cccc3ccccc23)c1=O`
Completion: 26.1

Prompt: And `O=C(CSc1nc2ccccc2c(=O)n1-c1ccccc1)N=Nc1c(O)[nH]c2ccc(Br)cc12` ?
Completion: 13.1

Further cases:
Prompt: Fill in the blank: the reported TGI of `COc1cc2ncnc(Nc3cccc(Br)c3)c2cc1OC` is ____.
Completion: 19

Prompt: Please answer likewise for COc1ccc(C2c3cc4c(cc3OC(N3CCOCC3)C2C)OCO4)cc1OC (stereo not given)
Completion: 87.7

Prompt: Now give it for `COc1cc(-c2csc(NC(=O)Nc3ccc(Cl)cc3)n2)cc(OC)c1OC` too.
Completion: 8.91
